Test system: SK-MEL-2 melanoma
Experiment: NCI-60 one-dose screen, 48 h (100 = growth as untreated, 0 = no growth, -100 = all killed)
Conditions: 10 µM
Compounds without any hit were thinned out: in the full panel of roughly 83,000, 20% have a hit.
endpoint.label: growth (%)
The reply should be a number in %, with the unit left off.

- item.smiles: "CN(CCF)c1ccc(/C=C/C(=O)c2ccc(N)cc2O)cc1"
  quantity.unit: "%"
  experimental.result: 93
- item.smiles: "COc1cc2c3c(n(CCCn4ccnc4)c(=O)c2cc1OC)-c1nc2c(cc1C3=O)OCO2"
  quantity.unit: "%"
  experimental.result: 123
- item.smiles: "CN1CCCN(Cc2ccc(C(=O)Nc3cccc(Nc4ccc5cc(O)ccc5n4)c3)cc2C(F)(F)F)CC1"
  quantity.unit: "%"
  experimental.result: 111
- item.smiles: "CN1CCc2c(sc3ncnc(N/N=C/c4cn(-c5ccccc5)nc4-c4ccc(Cl)cc4)c23)C1"
  quantity.unit: "%"
  experimental.result: 36.3
- item.smiles: "CC(=O)Nc1ccc(-c2cn(-c3cccc(C(=O)Nc4cc(CN5CCOCC5)cc(C(F)(F)F)c4)c3)nn2)cn1"
  quantity.unit: "%"
  experimental.result: -84.6

[Q] Give its growth value. Item: `COc1cc(/C=C/C(=O)c2ccc(S(=O)(=O)NCCNc3nc(Nc4ccc(F)cc4)nc(N(C)C)n3)cc2)cc(OC)c1OC`
[A] 98.4

[Q] Also `Cc1ccc(C(C)C)cc1NC(=O)c1ccccc1O` ?
[A] 25.4

[Q] Cool, now `O=C1NC(=NC2CCCCCC2)N/C1=C\c1ccc2ncoc2c1`
[A] 22.9

[Q] Next molecule: `Cc1ccc(-c2cc(C(=O)N=Nc3c(O)[nH]c4ccccc34)c3ccccc3n2)cc1`
[A] 101
